# Tested on: M14
# experiment: NCI tumour cell line growth inhibition, 48 h
Calls of active or inactive are those of the source. Cut-off read from the data, not from the text of the source: active = GI50 up to about 1.1 µM and inactive = higher.
measured-attribute: GI50

Look over these answered cases.
[[record]]
compound = "COCO[C@@H]1C[C@H]2C(=O)N(COC)c3ccccc3C(=O)N2C1"
value_measured = "> 100 µM (inactive)"

[[record]]
compound = "Cn1c(=O)c2c(nc(N3CCOCC3)n2CCCNCC(O)c2ccc(O)c(O)c2)n(C)c1=O (stereo not given)"
value_measured = "> 100 µM (inactive)"

[[record]]
compound = "CC(=O)Nc1ccc2cc3[nH]c4cc(NC(C)=O)ccc4c3nc2c1"
value_measured = "> 100 µM (inactive)"

[[record]]
compound = "COc1cccc2nc3c(C(=O)NCCN(C)C)cccc3cc12"
value_measured = "1.64 µM (inactive)"


Now let's try a different one.
Measured GI50, N=C(N)N/N=C/c1c(-c2cc([N+](=O)[O-])c(Cl)cc2Cl)nc2sccn12 : 1.66 µM (inactive)
